# System Name: T1, S15-extra cellular domain (ECD) monomer (human, UniProt Q6ZMC9 20-263)
# T1 construct: also called S15 monomer protein
# T1 sequence: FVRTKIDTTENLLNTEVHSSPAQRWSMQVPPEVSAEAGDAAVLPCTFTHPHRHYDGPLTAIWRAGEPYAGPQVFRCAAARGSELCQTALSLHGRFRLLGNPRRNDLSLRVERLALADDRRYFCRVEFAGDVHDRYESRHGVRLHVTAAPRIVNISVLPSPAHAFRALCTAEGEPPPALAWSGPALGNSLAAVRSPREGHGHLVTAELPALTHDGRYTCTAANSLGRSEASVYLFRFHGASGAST
# Experimental Details: BLI (Octet RED96), mAb on anti-human Fc sensors, S15-ECD monomer in solution, global fit
Quantity: kon (M⁻¹ s⁻¹)
Numbers only here, please. The scale is M⁻¹ s⁻¹.

Example binders with recorded kon:
| Binder | kon (M⁻¹ s⁻¹) |
| --- | --- |
| 8H8 (antibody, V domains shown, Mouse anti-human Siglec-15 mAb) VH: EVQLLETGGGLVQPGGSRGLSCEGSGFTFSGFWMSWVRQTPGKTLEWIGDINSDGSAINYAPSIKDRFTIFRDNDKNTLYLQMNNVRSEDTATYFCVRYDDYGYFDVWGTGTTVTVSS VL: QAVVTQESALTTSPGETVTLTCRSSSGAVTTGNFANWVQEKPDHLFTGLIGGTNNRAPGVPARFSGSLIGDKAALTITGAQTEDEAIYFCALWYSNHWVFGGGTKLTVL | 209000 |
| 1C3 (antibody, V domains shown, Mouse anti-human Siglec-15 mAb) VH: QVQLKQSGAELVKPGASVKISCKASGYIFTDYYVNWVKQRPGQGLEWIGKIGPGSVSIYYNEKFKGKATLTADKSSSTAYMQLSSLTSEDSAVYFCASYYYGFAYWGQGTLVTVSA VL: DIVMTQAAPSVPVTPGESVSISCRSSKSLLHSNGNTYLYWFLQRPGQSPQLLIYRMSNLASGVPDRFGGSGSGTAFTLRISRVEAEDVGFYYCMQHLEYPYTFGGGTRLEIK | 317000 |

Note: attention shifts to another entry.
Prompt line: What does the data say about its kon? Entry: 105A (antibody, V domains shown, Mouse anti-human Siglec-15 mAb; also called NC105) VH: EVQLQQSGAELVRPGASVKLSCTASGFNIKDDYMHWVKQRPEQGLEWIGCIDPENGDIEYASRFQGKATMTADTSSNTAYLQLTSLTSADTAVYYCTTYVGFGYWGQGTLVTVSA VL: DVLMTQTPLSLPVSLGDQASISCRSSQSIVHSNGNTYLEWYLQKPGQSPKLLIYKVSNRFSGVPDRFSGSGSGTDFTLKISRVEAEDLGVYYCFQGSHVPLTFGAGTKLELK
Response line: 72000

These measurements were taken from patent US20190202912A1.
